- measurementProtocol: fission yeast growth modulation, primary screen, strain 972, OD600, 24 h, no modulator (AID 1090);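 further: basal condition with compound alone and no growth modifier present; test concentration not given here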
- conditionInfo: S. pombe 972 growth, higher = more signal, called active from +8 up or from −8 down
Active and inactive are the calls of the source.
I'd be grateful if you could share measured z-score for these entries.

Enquiry: Tell me the measured z-score of NCCCCCNC(=O)[C@H]1C[C@H]2C(=O)N[C@@H](Cc3ccccc3)C(=O)N2[C@H]1c1ccc(O)cc1 , please.
Return: -0.335 (inactive)

Enquiry: Tell me the measured z-score of COC(=O)[C@@]1(Cc2ccc(F)cc2)[C@H]2c3cc(C(=O)N(C)C)n(Cc4c(CO)[nH]cc(C)c4=O)c3C[C@H]2CN1C(=O)c1ccccc1 , please.
Return: -0.392 (inactive)

Enquiry: Tell me the measured z-score of C=CCNC(=O)[C@H]1[C@@H]2C(=O)O[C@@H](c3ccccc3)[C@@H](c3ccccc3)N2[C@@H](c2ccc(OCCO)cc2)[C@]12C(=O)Nc1ccc(C#CCNC(N)=O)cc12 , please.
Return: 1.48 (inactive)

Enquiry: Tell me the measured z-score of CCOC(=O)C[C@H]1[C@H](OC(=O)c2ccccc2-c2ccccc2)[C@@H](NC(=O)c2ccccc2)c2cc(OCCCO)ccc2N1C(=O)c1ccccc1 , please.
Return: 0.587 (inactive)

Enquiry: Tell me the measured z-score of COc1ccc(C(=O)Nc2cccc(CN3C(=O)[C@@]4(O[C@@H](CC(=O)N(CCO)Cc5ccccc5)[C@H]([Si](C)(C)c5ccc(OC)cc5)[C@H]4C)c4ccccc43)c2)cc1 , please.
Return: -0.9 (inactive)

Enquiry: Tell me the measured z-score of Cc1ccc(S[C@]2(C(=O)NCC(C)C)CC(=O)N(C3Cc4ccccc4C3)[C@@H]2c2ccc(CO)cc2I)cc1 , please.
Return: -1.49 (inactive)

Enquiry: Tell me the measured z-score of O=C1O[C@H](c2ccccc2)[C@H](c2ccccc2)N2[C@H]1[C@@H](C(=O)Nc1nc3ccccc3s1)[C@]1(C(=O)Nc3ccc(C#CC4=CCCCC4)cc31)[C@H]2c1ccc(O)cc1 , please.
Return: 0.589 (inactive)

Enquiry: Tell me the measured z-score of COC(=O)[C@@]1(Cc2ccccc2CN=[N+]=[N-])N=C(c2ccc(OCCCO)cc2)O[C@H]1c1ccccc1CN=[N+]=[N-] , please.
Return: 1.96 (inactive)

Enquiry: Tell me the measured z-score of COc1ccc(C#Cc2ccc3c(c2)[C@]2(C(=O)N3)[C@H](C(=O)Nc3nc4ccccc4s3)[C@H]3C(=O)O[C@H](c4ccccc4)[C@H](c4ccccc4)N3[C@@H]2c2ccccc2OCCO)cc1 , please.
Return: 1.53 (inactive)

Enquiry: Tell me the measured z-score of Cc1ccc(F)cc1S(=O)(=O)N[C@@H]1CCN(Cc2cccc3[nH]ccc23)C1 , please.
Return: -1.02 (inactive)

Enquiry: Tell me the measured z-score of CCOC(=O)C[C@H]1[C@H](OC(=O)c2ccc(-c3ccccc3)cc2)[C@@H](NC(=O)Cc2ccc(OC)cc2)c2cc(OCCCO)ccc2N1C(=O)Cc1ccc(OC)cc1 , please.
Return: -0.231 (inactive)

Enquiry: Tell me the measured z-score of [N-]=[N+]=Nc1ccccc1C[C@]1(C(=O)NCc2ccccc2)COC(c2ccc(OCCCO)cc2)=N1 , please.
Return: 0.184 (inactive)

====

- testedSystem: Neurogenic locus notch homolog protein 2 (Homo sapiens)
- measurementProtocol: Notch2 binders on small-molecule microarrays, primary screen, biochemical, small-molecule microarray, 635 nm fluorescence, stem cell growth factors (AID 1073)
- conditionInfo: Notch2 binding, higher = more signal
measureName: composite z-score
Number only, no unit.

Enquiry: Field: composite z-score (Neurogenic locus notch homolog protein 2 (Homo sapiens)). Entry: CC(C)[Si]1(C(C)C)OCc2cc(-c3ccc(-c4ccc(Cl)c(Cl)c4)o3)nc(CCc3ccccc3)c21
Return: -0.412

Enquiry: Field: composite z-score (Neurogenic locus notch homolog protein 2 (Homo sapiens)). Entry: COC(=O)C(CC#Cc1ccc2c(c1)[C@]1(C(=O)N2)[C@H](c2ccc(O)cc2)N2[C@H](c3ccccc3)[C@H](c3ccccc3)OC(=O)[C@H]2[C@@H]1C(=O)N1CCCCCCC1)C(=O)OC
Return: 1.08

Enquiry: Field: composite z-score (Neurogenic locus notch homolog protein 2 (Homo sapiens)). Entry: COCCCNC(=O)[C@@H]1c2ccccc2C(=O)N(C2Cc3ccccc3C2)[C@H]1c1ccc(CO)cc1
Return: -0.0746

Enquiry: Field: composite z-score (Neurogenic locus notch homolog protein 2 (Homo sapiens)). Entry: CN(C)C(=O)[C@@]1(Cc2ccccc2)COC(c2ccc(OCCCO)cc2)=N1
Return: -0.266

Enquiry: Field: composite z-score (Neurogenic locus notch homolog protein 2 (Homo sapiens)). Entry: C=CCOC(=O)[C@H]1[C@@H]2C(=O)O[C@@H](c3ccccc3)[C@@H](c3ccccc3)N2[C@@H](c2ccc(OCCOC(=O)[C@H]3C[C@H]4C(=O)N[C@@H](CCCCNC(C)=O)C(=O)N4[C@H]3c3cccc(OCCO)c3)cc2)[C@]12C(=O)Nc1ccc(I)cc12
Return: 0.656

Enquiry: Field: composite z-score (Neurogenic locus notch homolog protein 2 (Homo sapiens)). Entry: COc1ccc(C(=O)Nc2cccc(CN3C(=O)[C@]4(O[C@H](CCn5cc([C@H](O)c6ccccc6)nn5)[C@@H]([Si](C)(C)c5ccc(OC)cc5)[C@@H]4C)c4ccccc43)c2)cc1
Return: -0.122

====

- measurementProtocol: A549 cell viability effects, profiling panel, calcein-AM fluorescence, 48 h, basal (AID 1162); further: test concentration not given here
- conditionInfo: higher = more signal
measureName: z-score
Number only, no unit.

Enquiry: Tell me the measured z-score of Cc1ccc(S[C@]2(C(=O)NCC(C)C)CC(=O)N(C3Cc4ccccc4C3)[C@@H]2c2ccc(CO)cc2I)cc1 , please.
Return: 0.168

Enquiry: Tell me the measured z-score of [N-]=[N+]=Nc1ccccc1C[C@]1(C(=O)O)N=C(c2ccc(OCCCO)cc2)O[C@H]1c1ccccc1N=[N+]=[N-] , please.
Return: -0.35

Enquiry: Tell me the measured z-score of COc1ccc([Si](C)(C)[C@@H]2[C@@H](CC(=O)N3Cc4ccccc4C[C@H]3CO)O[C@]3(C(=O)N(c4ccccc4)c4ccccc43)[C@H]2C)cc1 , please.
Return: -0.77

Enquiry: Tell me the measured z-score of COCCOC(=O)N1C(=O)[C@@]2(c3cc(C#CCCO)ccc31)[C@H](c1ccccc1OCCO)N1[C@H](c3ccccc3)[C@H](c3ccccc3)OC(=O)[C@H]1[C@@H]2C(=O)N1CCCCCCC1 , please.
Return: 0.66

Enquiry: Tell me the measured z-score of C=CC1c2cc(O)c(OC)cc2CCN1Cc1ccc([N+](=O)[O-])o1 (configuration not stated) , please.
Return: 0.654

Enquiry: Tell me the measured z-score of CN(C)CCCC[C@@H]1NC(=O)[C@@H]2C[C@H](C(=O)O)[C@H](c3cccc(OCCO)c3)N2C1=O , please.
Return: 0.0184

Enquiry: Tell me the measured z-score of COC(=O)[C@@]1(Cc2ccc(F)cc2)[C@H]2c3cc(C(=O)N(C)C)n(Cc4ccc(O)c(OC)c4)c3C[C@H]2CN1C(=O)c1ccccc1 , please.
Return: 0.511

====

I'd be grateful if you could share measured z-score for these entries.
- measurementProtocol: inhibitors of hydroxyurea-induced Chk1 phosphorylation, primary screen, imaging, HeLa, phospho-Chk1 nuclear intensity (AID 1187); further: test concentration not given here
- conditionInfo: hydroxyurea-induced phospho-Chk1 immunofluorescence imaging, higher = more signal
Active and inactive are the calls of the source. No rule for the calls is given here.

Enquiry: Tell me the measured z-score of COC(=O)[C@@]1(Cc2ccc(F)cc2)[C@H]2c3cc(C(=O)N(C)C)n(Cc4ccc(O)c(OC)c4)c3C[C@H]2CN1C(=O)c1ccccc1 , please.
Return: -0.131 (inactive)

Enquiry: Tell me the measured z-score of COCCOC(=O)N1C(=O)[C@@]2(c3cc(C#CCNC(N)=O)ccc31)[C@H](c1ccc(O)cc1)N1[C@H](c3ccccc3)[C@H](c3ccccc3)OC(=O)[C@H]1[C@@H]2C(=O)N1CCN(c2ncccn2)CC1 , please.
Return: -0.184 (inactive)

Enquiry: Tell me the measured z-score of CCOC(=O)C1=CCC(c2ccco2)N(S(=O)(=O)c2ccc(C)cc2)C1 (centres undefined) , please.
Return: -0.942 (inactive)

Enquiry: Tell me the measured z-score of O=C(NCC(O)CO)[C@@]1(CCS(=O)(=O)c2ccccc2)COC(c2ccc(OCCCO)cc2)=N1 (some centres undefined) , please.
Return: -0.556 (inactive)

Enquiry: Tell me the measured z-score of C=C(/C(=C/C[C@H](OC(=O)c1ccncc1)c1cccc(OCCO)c1)c1cnc2ccccc2c1)C(C)C , please.
Return: 0.212 (inactive)

Enquiry: Tell me the measured z-score of C=CCC(OC(C)=O)[C@@H]1[C@@H](N(Cc2cccc3ccccc23)C(=O)c2cccc3ccccc23)c2cc(OCCCO)ccc2N1C(=O)c1ccc2ccccc2c1 (some centres undefined) , please.
Return: -0.158 (inactive)

Enquiry: Tell me the measured z-score of CN(C)C(=O)[C@]1(CCS(=O)(=O)c2ccccc2)N=C(c2ccc(OCCCO)cc2)O[C@@H]1c1ccccc1 , please.
Return: 0.0689 (inactive)

Enquiry: Tell me the measured z-score of CCOC(=O)C1=CCC(c2ccccc2)N(S(=O)(=O)c2ccc([N+](=O)[O-])cc2)C1 (centres undefined) , please.
Return: -0.0449 (inactive)

Enquiry: Tell me the measured z-score of COCCOC(=O)N1C(=O)[C@@]2(c3ccccc31)[C@H](c1ccccc1OCCO)N1[C@H](c3ccccc3)[C@H](c3ccccc3)OC(=O)[C@H]1[C@@H]2C(N)=O , please.
Return: 0.12 (inactive)

Enquiry: Tell me the measured z-score of C=C[C@H](C)[C@H](OC(=O)Nc1ccc(OC)cc1)c1ccc(OCCO)cc1 , please.
Return: -0.261 (inactive)

Enquiry: Tell me the measured z-score of COCCOC(=O)N1C(=O)[C@@]2(c3cc(C#CCC(C(=O)OC)C(=O)OC)ccc31)[C@H](C(=O)NC[C@H](O)c1ccccc1)[C@H]1C(=O)O[C@H](c3ccccc3)[C@H](c3ccccc3)N1[C@@H]2c1ccc(OCCO)cc1 , please.
Return: 0.176 (inactive)

Enquiry: Tell me the measured z-score of CN1C(=O)C2C=CC(C(O)c3ccc(I)cc3)N(Nc3ccccc3)C2C1=O (centres undefined) , please.
Return: 0.0306 (inactive)

Enquiry: Tell me the measured z-score of [N-]=[N+]=Nc1ccccc1C[C@]1(C(=O)NCc2ccccc2)COC(c2ccc(OCCCO)cc2)=N1 , please.
Return: -0.571 (inactive)

Enquiry: Tell me the measured z-score of CCOC(=O)C[C@H]1[C@H](OC(=O)c2ccc(-c3ccccc3)cc2)[C@@H](NC(=O)CC(C)C)c2cc(OCCCO)ccc2N1C(=O)c1ccccc1 , please.
Return: -0.0761 (inactive)
